# measured-target: T1, E. coli RNase P holoenzyme, P RNA C70U (Escherichia coli, UniProt P0A7Y8 1-119)
# T1 sequence: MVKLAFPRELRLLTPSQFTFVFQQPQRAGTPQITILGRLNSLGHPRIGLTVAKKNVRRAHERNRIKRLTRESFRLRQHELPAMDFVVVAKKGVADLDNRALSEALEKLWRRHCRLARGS
# test-method-notes: single-turnover kinetics by PAGE (K'); 17.5 mM Mg2+; imprecise, very slow cleavage; 50 mM MES pH 6, 100 mM NaCl, 17.5 mM MgCl2 (or CaCl2), 0.015% Triton X-100 reduced, 37 C (PAGE single turnover); stopped-flow in similar buffer
# experimental-parameters: protein: recombinant; label: 5' Cy3 on strand 1; 12 bp continuous helix with one U-G wobble; 5' overhang 9 nt, 3' overhang 4 nt (GCCA)

- binder: "5'Cy3-MD1 (dsRNA, 2-aminopurine at position 8 (N-2) as printed, written A; Table 1 appears to swap the Cy3 between 5'Cy3-MD1 and 5'Ap(-2)-MD1) RNA 1: ACCCAAAAUGGUCCGGGCGGG RNA 2: CCCGUCCGGACCGCCA"
  Kd: "< 250 nM"
